Study the reported pIC50 values for Steryl-sulfatase (Homo sapiens, UniProt P08842) given below; they originate from different publications.
The scale used: pIC50 is minus the common logarithm of the concentration in molar units.

// known answers, use as guide
| STRUCTURE_STRING | MEASURED_RESULT |
| --- | --- |
| CCCCNC(=S)N/N=C/c1cccc(C(=O)O)c1 | 4.24 |
| CCCC(=O)c1ccc(OS(N)(=O)=O)cc1 | 4.40 |
| NS(=O)(=O)Oc1ccc2oc(-c3ccccc3)cc(=O)c2c1 | 6.17 |
| NS(=O)(=O)Oc1ccc2cc(-c3ccc(NC(=O)Cc4ccc(F)c(F)c4)cc3)c(=O)oc2c1 | 6.44 |
| C[C@]12CC[C@@H]3c4cc([N+](=O)[O-])c(O)c([N+](=O)[O-])c4CC[C@H]3[C@@H]1CCC2=O | 4.59 |

*Q* Given the entry "NS(=O)(=O)Oc1ccc2cc(-c3ccc(NC(=O)Cc4ccc(OC(F)(F)F)cc4)cc3)c(=O)oc2c1" , report its measured pIC50.
*A* 6.36
